assay: CCTE_Shafer_MEA_dev_per_network_spike_spike_percent: CCTE's Neural Network Formation Assay for Percent of Spikes in a Network Spike, Shafer Lab (AID 2284054)
Activity calls are given as the source filed them. How the source made its calls: active means hit-call score of the fitted dose curve at least 0.9, where 1 is the maximum; inactive means score below 0.9.

{"columns": ["COMPOUND", "AC50"],
 "data": [
  ["CC/C(=C(\\c1ccccc1)c1ccc(OCCN(C)C)cc1)c1ccccc1", "3.89 µM (active)"],
  ["CCCCC(CC)COC(=O)COc1ccc(Cl)cc1C (stereo not given)", "inactive"],
  ["N#CCCNCCC#N", "inactive"],
  ["C[C@]12CC[C@@H]3c4ccc(O)cc4CC[C@H]3[C@@H]1CC[C@@H]2O", "inactive"],
  ["CC(C)Cc1ccc(C(C)C(=O)O)cc1 (stereo not given)", "15 µM (active)"]
]}

###

experiment: ATG_NRF2_ARE_CIS: Attagene CIS-FACTORIAL HepG2 Assay for human Nuclear Factor Erythroid 2 Related Factor 2 (NFR2) response to Antioxidant Response Elements (ARE) (AID 2282992); conditions: HepG2 Attagene ARE/NRF2 reporter, transcription factor activity; actives raise or lower the signal
Activity calls are given as the source filed them. Rule for the calls: active = hit-call score of the fitted dose curve at least 0.9, where 1 is the maximum; inactive = score below 0.9.
Possible outcomes: TRUE (active), FALSE (inactive)

{"columns": ["MOLECULE", "QUALITATIVE_LABEL"],
 "data": [
  ["CC(=O)Nc1cc(S(=O)(=O)O)cc2cc(S(=O)(=O)O)c(N=Nc3ccccc3)c(O)c12", "FALSE"],
  ["CC(C)=CC(=O)O", "FALSE"],
  ["CC(CCO)CC(C)(C)C (configuration not stated)", "FALSE"],
  ["CC(O)COCC(C)O (configuration not stated)", "FALSE"],
  ["C=C(C)C(N)=O", "FALSE"],
  ["CC1=CCC(C(C)C)=CC1", "FALSE"],
  ["CC(=O)CC(=O)N(C)C", "FALSE"],
  ["N#CCCNCCC#N", "FALSE"],
  ["CCO[Si](CC)(OCC)OCC", "TRUE"],
  ["CC(=O)c1cccnc1", "FALSE"],
  ["CCOC(=O)C=Cc1ccccc1", "TRUE"],
  ["C1CCCNCC1", "FALSE"],
  ["Cc1ccccc1S", "TRUE"],
  ["CCCCCCC(O)CCOC(C)=O (configuration not stated)", "FALSE"],
  ["Brc1cc(Br)cc(Br)c1", "FALSE"],
  ["CC(C)(C)c1ccc(S)cc1", "TRUE"],
  ["CCCc1ccc(O)cc1", "TRUE"]
]}

###

read-out: Monocyte Chemoattractant Protein-1 (MCP1), CCL2 (gene 6347); experiment: BSK_4H_MCP1: BioMAP Diversity Plus: 4H Assay for Monocyte Chemoattractant Protein-1 (MCP1) Biomarker Activity (AID 2283018); conditions: primary human endothelial cells (HUVEC); actives raise or lower the signal
Activity calls are given as the source filed them. The calls were made as follows: active = hit-call score of the fitted dose curve at least 0.9, where 1 is the maximum; inactive = score below 0.9.
Labels: true = active, false = inactive

{"columns": ["MOLECULE", "QUALITATIVE_LABEL"],
 "data": [
  ["CC1(C)[C@H](C=C(Cl)Cl)[C@H]1C(=O)OCc1cccc(Oc2ccccc2)c1", "false"],
  ["CC=CC(=O)C1=C(C)C=CCC1(C)C", "false"],
  ["O=S(=O)(O)C(F)(F)C(F)(F)OC(F)(F)C(F)(F)F", "false"],
  ["CCCCCCCCCCCCS", "true"],
  ["O=C1OC2(c3ccc(O)cc3Oc3cc(O)ccc32)c2ccccc21", "false"],
  ["c1ccc(Sc2ccccc2)cc1", "true"],
  ["CCCCN(CCO)CCO", "false"],
  ["Nc1ccc(N)c([N+](=O)[O-])c1", "false"],
  ["COC(=O)c1ccc(C(=O)OC)cc1", "false"],
  ["CC(=O)OC(C)(C)C1CC=C(C)CC1 (centres undefined)", "true"],
  ["CCCCCCCCCC(=O)OCC", "true"],
  ["CC(=O)OCC=C(C)CCC=C(C)CCC=C(C)C", "true"],
  ["OCCN1CCOCC1", "false"],
  ["CCn1cc(C(=O)O)c(=O)c2ccc(C)nc21", "false"]
]}
